- Test system: HT29 colon
- assay-details: NCI-60 one-dose screen, 48 h
- details: 10 µM unless noted
About 83,000 compounds went through this panel and 20% of them were active in at least one assay; those are over-represented in the sample as a whole. The source made the active and inactive calls. The calls were made as follows: active = growth percent below 10; inactive = the rest.
Labels: active, inactive

molecule	class-assignment
Cc1ccc(-c2nc(N3CCCNCC3)c3oc(-c4ccc(C)cc4)nc3n2)cc1	active
CN1C(=O)/C(=C\c2c(Cl)cccc2Cl)c2ccccc21	inactive
O=C(Nc1cccc(-c2ccc(N3CCOCC3)nn2)c1)Nc1cccc(C(F)(F)F)c1	inactive
O=C1Nc2ccc(C(=O)O)cc2/C1=N/c1nnc(Sc2ccccc2)s1	inactive
O=S(=O)(Nc1cc(Cl)ccc1Cl)c1ccc(-c2cnc(C3CC3)o2)cc1	active
C=C(C)[C@@H]1CC[C@]2(C(=O)O)CC[C@]3(C)[C@H](CC[C@@H]4[C@@]5(C)CCC(NC(=O)c6cccc(OC(C)=O)c6OC(C)=O)C(C)(C)[C@@H]5CC[C@]43C)[C@@H]12 (stereo partly specified)	active
O=C(O)CCN1C(=O)/C(=C/C(Cl)=C/c2ccccc2)SC1=S	inactive
O=C(CN1C(=O)NC2NC(=O)NC21)N/N=C/c1ccccc1[N+](=O)[O-] (stereo unspecified)	inactive
CCOC(=O)c1cc2c(n1C)-c1nc(NC(C)=O)sc1CCC2	inactive
O=C(N(c1ccccc1)c1ccccc1)n1cc(I)c2nc(Cl)nc(Cl)c21	inactive
O=C(Nc1nc(-c2ccc(Cl)cc2)nc2c1sc(=S)n2-c1ccccc1)C(F)(F)F	inactive
COc1ccc(/C=C/C(=O)c2ccc(Nc3ccnc4cc(Cl)ccc34)cc2)cc1	inactive
O=C(/C=C(/C=C/c1ccc2[nH]ccc2c1)OB(F)F)/C=C/c1ccc2[nH]ccc2c1	active
CCCCCCCCCc1ccc(OCCOCCOCCOCCOCCOCCOCCOCCOCCO)cc1	inactive
CCOCCNC1=C(Cl)C(=O)c2ccccc2C1=O	inactive
Nc1ncnc2c1C(c1ccc(Br)cc1)c1sc3c(F)cccc3c1O2 (stereo unspecified)	inactive
Oc1c(Br)cc(Br)c2ccc(Cn3cc(-c4ccccc4C(F)(F)F)nn3)nc12	inactive
COCCOc1cc2ncnc(N3CCN(c4cc(S(C)(=O)=O)c(C)cc4Cl)CC3)c2cc1OCCOC	inactive
C#CCOc1ccc2ncnc(Nc3ccc(NC(=O)C=C)cc3)c2c1	active
CCOC(=O)c1cc(C(=O)c2cc(OC)c(OC)c(OC)c2)n2ncccc12	active
O=C(N/N=C/c1c(Cl)cccc1Cl)c1cccnc1Nc1cccc(C(F)(F)F)c1	inactive
